Just for reference, paper PMC9667936 is where these values come from.

The following molecules are listed with their measured Affinity Kd values.
biological target: 14-3-3γ (Homo sapiens, UniProt P61981); construct: made in house; host or cells: E. coli NiCo21 (DE3); test: Fluorescence anisotropy (FA) binary binding study: 14-3-3 titrated to fluorescein-labelled peptide; conditions: Table S4, point-mutated peptides; FA, 10 nM FITC-labelled peptide; replicate 3
Sequence (P61981 whole entry): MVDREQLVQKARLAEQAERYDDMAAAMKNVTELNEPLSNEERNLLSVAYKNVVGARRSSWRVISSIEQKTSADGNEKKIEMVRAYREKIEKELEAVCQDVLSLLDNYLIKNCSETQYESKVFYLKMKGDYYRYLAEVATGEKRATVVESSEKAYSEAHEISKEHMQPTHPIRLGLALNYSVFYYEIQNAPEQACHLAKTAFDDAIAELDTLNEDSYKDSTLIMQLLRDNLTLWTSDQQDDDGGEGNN
Where a SMILES comes first, the peptide text is derived from it. [ ]: non-standard residue; d: D form. ξ: configuration not given here. Phe(4-NO2) = N[C@@H](Cc1ccc([N+](=O)[O-])cc1)C(=O)O; ξAla(4-thiazolyl) = NC(Cc1cscn1)C(=O)O; pS = N[C@@H](COP(=O)(O)O)C(=O)O; β3hS = N[C@@H](CO)CC(=O)O; Nva = CCC[C@H](N)C(=O)O; ξβ3hS = NC(CO)CC(=O)O; βAla = NCCC(=O)O
Quick note: give the figure in nM, leave out the unit.

CCC[C@H](NC(=O)[C@H](N)CCCCN)C(=O)N[C@@H](Cc1ccc([N+](=O)[O-])cc1)C(=O)NC(Cc1cscn1)C(=O)N[C@@H](COP(=O)(O)O)C(=O)N[C@@H](Cc1ccc([N+](=O)[O-])cc1)C(=O)N[C@@H](CO)CC(=O)NCCC(=O)N[C@@H](C)C(=O)N[C@@H](CCCCN)C(N)=O (stereo partly drawn) [5c] (H-[dK][Nva][Phe(4-NO2)][ξAla(4-thiazolyl)][pS][Phe(4-NO2)][β3hS][βAla]AK-NH2; N-terminus and C-terminus assumed); 2900
CCC[C@H](NC(=O)[C@H](N)CCCCN)C(=O)N[C@@H](Cc1ccc([N+](=O)[O-])cc1)C(=O)NC(Cc1cscn1)C(=O)N[C@@H](COP(=O)(O)O)C(=O)N[C@@H](Cc1ccc([N+](=O)[O-])cc1)C(=O)N[C@@H](CO)CC(=O)NCCC(=O)N[C@@H](Cc1ccccc1)C(=O)N[C@@H](CCCCN)C(N)=O (stereo partly drawn) [5b] (H-[dK][Nva][Phe(4-NO2)][ξAla(4-thiazolyl)][pS][Phe(4-NO2)][β3hS][βAla]FK-NH2; N-terminus and C-terminus assumed); 1800
CCC[C@H](NC(=O)[C@H](N)CCCCN)C(=O)N[C@@H](Cc1ccc([N+](=O)[O-])cc1)C(=O)N[C@@H](C)C(=O)N[C@@H](COP(=O)(O)O)C(=O)N[C@@H](Cc1ccc([N+](=O)[O-])cc1)C(=O)N[C@@H](CO)CC(=O)NCCC(=O)N[C@@H](Cc1ccc([N+](=O)[O-])cc1)C(=O)N[C@@H](CCCCN)C(N)=O [3a] (H-[dK][Nva][Phe(4-NO2)]A[pS][Phe(4-NO2)][β3hS][βAla][Phe(4-NO2)]K-NH2; N-terminus and C-terminus assumed); 72
CCC[C@H](NC(=O)[C@H](N)CCCCN)C(=O)N[C@@H](Cc1ccc([N+](=O)[O-])cc1)C(=O)NC(Cc1cscn1)C(=O)N[C@@H](COP(=O)(O)O)C(=O)N[C@@H](C)C(=O)N[C@@H](CO)CC(=O)NCCC(=O)N[C@@H](Cc1ccc([N+](=O)[O-])cc1)C(=O)N[C@@H](CCCCN)C(N)=O (stereo partly drawn) [4c] (H-[dK][Nva][Phe(4-NO2)][ξAla(4-thiazolyl)][pS]A[β3hS][βAla][Phe(4-NO2)]K-NH2; N-terminus and C-terminus assumed); 1600
CCC[C@H](NC(=O)[C@H](N)CCCCN)C(=O)N[C@@H](Cc1ccc([N+](=O)[O-])cc1)C(=O)NC(Cc1cscn1)C(=O)N[C@@H](COP(=O)(O)O)C(=O)N[C@@H](Cc1ccc([N+](=O)[O-])cc1)C(=O)N[C@@H](CO)CC(=O)NCCC(=O)N[C@@H](Cc1ccc(O)cc1)C(=O)N[C@@H](CCCCN)C(N)=O (stereo partly drawn) [5a] (H-[dK][Nva][Phe(4-NO2)][ξAla(4-thiazolyl)][pS][Phe(4-NO2)][β3hS][βAla]YK-NH2; N-terminus and C-terminus assumed); 1700

Give the measured Affinity Kd of CCC[C@H](NC(=O)[C@H](N)CCCCN)C(=O)N[C@@H](Cc1ccc([N+](=O)[O-])cc1)C(=O)NC(Cc1cscn1)C(=O)N[C@@H](COP(=O)(O)O)C(=O)N[C@@H](Cc1ccc([N+](=O)[O-])cc1)C(=O)NC(CO)CC(=O)NCCC(=O)N[C@@H](Cc1ccc([N+](=O)[O-])cc1)C(=O)N[C@@H](CCCCN)C(N)=O (stereo partly drawn) [compound 1] (H-[dK][Nva][Phe(4-NO2)][ξAla(4-thiazolyl)][pS][Phe(4-NO2)][ξβ3hS][βAla][Phe(4-NO2)]K-NH2) .
74

Cool, now CCC[C@H](NC(=O)[C@H](N)CCCCN)C(=O)N[C@@H](Cc1ccc([N+](=O)[O-])cc1)C(=O)NC(Cc1cscn1)C(=O)N[C@@H](COP(=O)(O)O)C(=O)N[C@@H](Cc1ccccc1)C(=O)N[C@@H](CO)CC(=O)NCCC(=O)N[C@@H](Cc1ccc([N+](=O)[O-])cc1)C(=O)N[C@@H](CCCCN)C(N)=O (stereo partly drawn) [4b] (H-[dK][Nva][Phe(4-NO2)][ξAla(4-thiazolyl)][pS]F[β3hS][βAla][Phe(4-NO2)]K-NH2; N-terminus and C-terminus assumed)
87

Record: CCC[C@H](NC(=O)[C@H](N)CCCCN)C(=O)N[C@@H](Cc1ccc([N+](=O)[O-])cc1)C(=O)NC(Cc1cscn1)C(=O)N[C@@H](COP(=O)(O)O)C(=O)N[C@@H](Cc1ccc(O)cc1)C(=O)N[C@@H](CO)CC(=O)NCCC(=O)N[C@@H](Cc1ccc([N+](=O)[O-])cc1)C(=O)N[C@@H](CCCCN)C(N)=O (stereo partly drawn) [4a] (H-[dK][Nva][Phe(4-NO2)][ξAla(4-thiazolyl)][pS]Y[β3hS][βAla][Phe(4-NO2)]K-NH2; N-terminus and C-terminus assumed)
63
